assay.remarks: Pharmacokinetic analysis in male SD rats
Type: in vivo
applied.conditions: Sprague-Dawley (SD), rat, plasma, 5.0 mg/kg po
reported.metric: Cmax (ng/mL)
Field format: number, assumed ng/mL, no unit text.

Take a look at these entries with their results.
- molecule: "Cc1cc(-n2nc3c(c2-n2ccn(-c4ccc5c(cnn5C)c4F)c2=O)[C@@H]2CC[C@H](C3)N2C(=O)c2cc3cc([C@H]4CCOC5(CC5)C4)ccc3n2[C@@]2(c3noc(=O)[nH]3)C[C@@H]2C)cc(C)c1F"
  units.symbol: "ng/mL"
  Cmax: 640
- molecule: "Cc1cc(-n2nc3c(c2-n2ccn(-c4ccc5c(cnn5C)c4F)c2=O)[C@H](C)N(C(=O)c2cc4cc([C@H]5CCOC(C)(C)C5)ccc4n2[C@@]2(c4noc(=O)[nH]4)C[C@@H]2C)CC3)cc(C)c1F [Orforglipron, orforglipron, reference compound]"
  units.symbol: "ng/mL"
  Cmax: 240
- molecule: "Cc1cc(-n2nc3c(c2-n2ccn(-c4ccc5c(cnn5C)c4F)c2=O)[C@@H]2COC[C@H](C3)N2C(=O)c2cc3cc([C@H]4CCOC(C)(C)C4)ccc3n2[C@@]2(c3noc(=O)[nH]3)C[C@@H]2C)cc(C)c1F"
  units.symbol: "ng/mL"
  Cmax: 923

Any idea what Cmax was measured for Cc1cc(-n2nc3c(c2-n2ccn(-c4ccc5c(cnn5C)c4F)c2=O)[C@@H]2CC[C@H](C3)N2C(=O)c2cc3cc([C@H]4CCOC(C)(C)C4)ccc3n2[C@@]2(c3noc(=O)[nH]3)C[C@@H]2C)cc(C)c1F ? 610

---

assay.remarks: in vivo
applied.conditions: male, cynomolgus monkey, po, 0.36 mg/kg
reported.metric: AUC(0-inf) (ng·h/mL)
Response body: numeric value in ng·h/mL, unit text excluded.

- smiles.str: "Cc1cc(-n2nc3c(c2-n2ccn(-c4ccc5c(cnn5C)c4F)c2=O)[C@@H]2CC[C@H](C3)N2C(=O)c2cc3cc([C@H]4CCOC(C)(C)C4)ccc3n2[C@@]2(c3noc(=O)[nH]3)C[C@@H]2C)cc(C)c1F"
  reported.metric: "AUC(0-inf)"
  observed.result: 771
- smiles.str: "Cc1cc(-n2nc3c(c2-n2ccn(-c4ccc5c(cnn5C)c4F)c2=O)[C@@H]2CC[C@H](C3)N2C(=O)c2cc3cc([C@H]4CCOC5(CC5)C4)ccc3n2[C@@]2(c3noc(=O)[nH]3)C[C@@H]2C)cc(C)c1F"
  reported.metric: "AUC(0-inf)"
  observed.result: 1000

Please turn your attention to the following entry.
May I ask what AUC(0-inf) has been recorded for Cc1cc(-n2nc3c(c2-n2ccn(-c4ccc5c(cnn5C)c4F)c2=O)[C@@H]2COC[C@H](C3)N2C(=O)c2cc3cc([C@H]4CCOC(C)(C)C4)ccc3n2[C@@]2(c3noc(=O)[nH]3)C[C@@H]2C)cc(C)c1F ? 121

---

Below: a set of entries, each annotated with reported EC50.
system: human GLP-1R (Homo sapiens, UniProt P43220)
Construct: host or cells: HEK293
Sequence (P43220 24-463): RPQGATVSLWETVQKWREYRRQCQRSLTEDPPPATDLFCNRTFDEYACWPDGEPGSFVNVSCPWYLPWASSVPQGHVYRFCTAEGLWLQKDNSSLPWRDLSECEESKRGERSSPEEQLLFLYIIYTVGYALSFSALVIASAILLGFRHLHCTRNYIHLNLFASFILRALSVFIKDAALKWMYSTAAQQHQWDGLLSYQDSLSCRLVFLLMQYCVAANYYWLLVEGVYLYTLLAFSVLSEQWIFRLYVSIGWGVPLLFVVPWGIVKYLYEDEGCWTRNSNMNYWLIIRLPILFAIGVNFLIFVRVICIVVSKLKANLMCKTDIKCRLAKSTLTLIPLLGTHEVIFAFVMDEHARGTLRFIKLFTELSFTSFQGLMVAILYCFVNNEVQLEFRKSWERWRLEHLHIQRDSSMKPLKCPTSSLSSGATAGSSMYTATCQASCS
assay.remarks: GLP-1R cAMP assay (Example B1a, HTRF, 30 min at room temperature)
Assay type: cell-based
applied.conditions: cAMP accumulation in HEK293 expressing human GLP-1R, no BETP, 30 min room temperature (Method B1a, compounds ID 1-609), Table 1; read-out: EC50

- compound: "Cc1cc(-n2nc3c(c2-n2ccn(-c4ccc5c(cnn5C)c4F)c2=O)[C@@H]2CC[C@H](C3)N2C(=O)c2cc3cc([C@H]4CCOC(C)(C)C4)ccc3n2C(=O)c2noc(=O)[nH]2)cc(C)c1F"
  observed.result: "> 10 µM"

Return reported EC50; argument: Cc1cc(-n2nc3c(c2-n2ccn(-c4ccc5c(cnn5C)c4F)c2=O)[C@@H]2CC[C@H](C3)N2C(=O)c2cc3c(=O)n(C4CCOC(C)(C)C4)ccc3n2[C@@]2(c3noc(=O)[nH]3)C[C@@H]2C)cc(C)c1F (some centres unmarked) > 10 µM

---

assay.remarks: Pharmacokinetic analysis in cynomolgus monkeys
applied.conditions: male, cynomolgus monkey, plasma, iv, 0.12 mg/kg
reported.metric: Vd (L/kg)
Report as a plain number; the unit L/kg is understood.

Fill in: Vd of Cc1cc(-n2nc3c(c2-n2ccn(-c4ccc5c(cnn5C)c4F)c2=O)[C@H](C)N(C(=O)c2cc4cc([C@H]5CCOC(C)(C)C5)ccc4n2[C@@]2(c4noc(=O)[nH]4)C[C@@H]2C)CC3)cc(C)c1F [Orforglipron, orforglipron, reference compound] is ___ 0.846

---

assay.remarks: in vivo
applied.conditions: male, cynomolgus monkey, po, 0.36 mg/kg
Recorded Cmax for the following molecules

In the examples that follow, each entry is paired with its recorded Cmax.
- smiles.str: "Cc1cc(-n2nc3c(c2-n2ccn(-c4ccc5c(cnn5C)c4F)c2=O)[C@@H]2COC[C@H](C3)N2C(=O)c2cc3cc([C@H]4CCOC(C)(C)C4)ccc3n2[C@@]2(c3noc(=O)[nH]3)C[C@@H]2C)cc(C)c1F"
  Cmax: "28 ng/mL"
- smiles.str: "Cc1cc(-n2nc3c(c2-n2ccn(-c4ccc5c(cnn5C)c4F)c2=O)[C@@H]2CC[C@H](C3)N2C(=O)c2cc3cc([C@H]4CCOC5(CC5)C4)ccc3n2[C@@]2(c3noc(=O)[nH]3)C[C@@H]2C)cc(C)c1F"
  Cmax: "149 ng/mL"

Now let's try a different one.
Record request: Cmax value, item Cc1cc(-n2nc3c(c2-n2ccn(-c4ccc5c(cnn5C)c4F)c2=O)[C@@H]2CC[C@H](C3)N2C(=O)c2cc3cc([C@H]4CCOC(C)(C)C4)ccc3n2[C@@]2(c3noc(=O)[nH]3)C[C@@H]2C)cc(C)c1F 121 ng/mL

---

system: human GLP-1R (Homo sapiens, UniProt P43220)
Construct: host or cells: HEK293
assay.remarks: GLP-1R cAMP assay (Example B1a, HTRF, 30 min at room temperature)
Type: cell-based
applied.conditions: cAMP accumulation in HEK293 expressing human GLP-1R, no BETP, 30 min room temperature (Method B1a, compounds ID 1-609), Table 1; read-out: EC50
reported.metric: pEC50
Remember, pEC50 is on a log scale: it is -log10 of the molar concentration.

These recorded examples may help you get a feel for the data.
- compound: "Cc1cc(-n2nc3c(c2-n2ccn(-c4ccc5c(cnn5C)c4F)c2=O)[C@@H]2CC[C@H](C3)N2C(=O)c2cc3cc(N4CCOC(C)(C)C4)ccc3n2[C@@]2(c3noc(=O)[nH]3)C[C@@H]2C)cc(C)c1F [Compound 229]"
  reported.metric: "pEC50"
  observed.result: 6.78
- compound: "CCP(=O)(CC)c1ccc(-n2ccn(-c3c4c(nn3-c3cc(C)c(F)c(C)c3)C[C@H]3CC[C@@H]4N3C(=O)c3cc4cc([C@H]5CCOC(C)(C)C5)ccc4n3[C@@]3(c4noc(=O)[nH]4)C[C@@H]3C)c2=O)cc1NC [Compound 203]"
  reported.metric: "pEC50"
  observed.result: 6.04
- compound: "Cc1cc(-n2nc3c(c2-n2ccn(-c4ccc5c(cnn5C)c4F)c2=O)[C@@H]2CC[C@H](C3)N2S(=O)(=O)c2cc3cc(C4CCOC(C)(C)C4)ccc3n2[C@]2(c3noc(=O)[nH]3)C[C@@H]2C)cc(C)c1F (some centres unmarked) [Compound 504]"
  reported.metric: "pEC50"
  observed.result: 5.71

Then this compound:
Using the record for Cc1cc(-n2nc3c(c2-n2ccn(-c4ccc5c(cnn5C)c4F)c2=O)[C@@H]2CC[C@H](C3)N2S(=O)(=O)c2cc3cc([C@H]4CCOC(C)(C)C4)ccc3n2[C@@]2(c3noc(=O)[nH]3)C[C@@H]2C)cc(C)c1F [Compound 525] , report its pEC50. 7.23

---

system: human GLP-1R (Homo sapiens)
Construct: host or cells: HEK293
assay.remarks: GLP-1R cAMP assay (Example B1a, HTRF, 30 min at room temperature)
Type: cell-based
applied.conditions: cAMP accumulation in HEK293 expressing human GLP-1R, no BETP, 30 min room temperature (Method B1a, compounds ID 1-609), Table 1; read-out: EC50
reported.metric: EC50 (nM)
Could you give me the number in nM? Just the number is fine.

Worked set:
- smiles.str: "Cc1cc(-n2nc3c(c2-n2ccn(-c4ccc5c(cnn5C)c4F)c2=O)[C@@H]2CCC[C@H](C3)N2C(=O)c2cc3cc([C@H]4CCOC5(CC5)C4)ccc3n2[C@@]2(c3noc(=O)[nH]3)C[C@@H]2C)cc(C)c1F"
  reported.metric: "EC50"
  units.symbol: "nM"
  observed.result: 134
- smiles.str: "Cc1cc(-n2nc3c(c2-n2ccn(-c4ccc5c(cnn5C)c4F)c2=O)[C@H](C)N(C(=O)c2cc4cc(C5CCOCC5)ccc4n2[C@@]2(c4noc(=O)[nH]4)C[C@@H]2C)CCC3)cc(C)c1F"
  reported.metric: "EC50"
  units.symbol: "nM"
  observed.result: 53.7
- smiles.str: "Cc1cc(-n2nc3c(c2-n2ccn(-c4ccc5[nH]ncc5c4F)c2=O)CN(C(=O)c2cc4cc([C@H]5CCOC(C)(C)C5)ccc4n2[C@@]2(c4noc(=O)[nH]4)C[C@@H]2C)CCC3)cc(C)c1F"
  reported.metric: "EC50"
  units.symbol: "nM"
  observed.result: 600
- smiles.str: "Cc1cc(-n2nc3c(c2-n2ccn(-c4ccc5c(cnn5C)c4F)c2=O)[C@@H]2CC[C@H](C3)N2C(=O)c2cc3cc([C@@H]4CCOC(C)(C)C4)ncc3n2[C@@]2(c3noc(=O)[nH]3)C[C@@H]2C)cc(C)c1F"
  reported.metric: "EC50"
  units.symbol: "nM"
  observed.result: 697

Look up EC50: Cc1cc(-n2nc3c(c2-n2ccn(-c4ccc5c(cnn5C)c4)c2=O)[C@@H]2CC[C@H](C3)N2C(=O)c2cc3cc([C@H]4CCOC(C)(C)C4)ccc3n2[C@@]2(c3noc(=O)[nH]3)C[C@@H]2C)cc(C)c1F 52.9
